test system: HEK-293T; experiment: Multiplex assay against HEK293T; type: toxicity, cell-based; settings: human, 24 h, 10 µM, compound concentration 10 uM, replicate 1

# MOLECULE, UOM, Population Healthy Nuclei (%)
measured = [
    ("Cc1ccccc1C(c1ccccc1C)N1C2CCC1CC(O)(c1ccccc1)C2 (stereo not drawn)", "%", 42),
    ("Cc1c[nH]c2nccc(Oc3c(F)cc(Nc4cc(Cl)nc(N)n4)cc3F)c12 [BAY-549]", "%", 41),
    ("Cc1nc(N2CC[C@H](O)C2)ncc1-c1cc(C(F)(F)F)cc2[nH]ncc12", "%", 80),
    ("C=CC(=O)Nc1cccc(Sc2nc(Nc3ccc(N4CCN(C)CC4)cc3)ncc2Cl)c1", "%", 64),
    ("CC(C)Oc1ccccc1C(=O)Nc1ccccc1C(=O)Nc1cccc(S(=O)(=O)C(F)(F)F)c1", "%", 31),
    ("C=CC(=O)Nc1ccc2[nH]c(=O)n(C3CCN(Cc4ccc(-c5nc6cc[nH]c(=O)c6cc5-c5ccccc5)cc4)CC3)c2c1 [Borussertib]", "%", 60),
    ("O=c1cc(N2CCOCC2)oc2c(-c3cccc4c3sc3ccccc34)cccc12", "%", 12),
    ("COc1ccccc1CN[C@H]1C2CCN(CC2)[C@H]1C(c1ccccc1)c1ccccc1 [CP-96345]", "%", 39),
]
